Examples of compounds with documented pIC50 follow.
MEASURED_TARGET: human CD73 (Homo sapiens)
Construct: purchased R&D Systems 5795-EN-010
Sequence (P21589 27-549): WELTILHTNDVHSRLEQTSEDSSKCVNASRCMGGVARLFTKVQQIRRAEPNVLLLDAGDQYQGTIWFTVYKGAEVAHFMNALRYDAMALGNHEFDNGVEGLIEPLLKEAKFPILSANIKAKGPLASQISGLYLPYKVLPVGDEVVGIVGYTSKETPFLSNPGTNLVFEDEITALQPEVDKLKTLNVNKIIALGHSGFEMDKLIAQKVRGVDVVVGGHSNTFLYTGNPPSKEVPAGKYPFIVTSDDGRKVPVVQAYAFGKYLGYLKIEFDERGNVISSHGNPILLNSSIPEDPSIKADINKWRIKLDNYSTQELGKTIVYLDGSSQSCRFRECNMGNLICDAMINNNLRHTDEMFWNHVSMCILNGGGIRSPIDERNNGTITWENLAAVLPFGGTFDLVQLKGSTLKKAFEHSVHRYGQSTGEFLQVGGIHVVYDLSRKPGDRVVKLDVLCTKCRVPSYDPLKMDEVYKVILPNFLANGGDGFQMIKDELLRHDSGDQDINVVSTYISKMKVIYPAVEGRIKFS
ASSAY_NAME: Inhibition of 5′-Nucleotidase Activity of CD73 (Assay 1)
Assay type: biochemical
TEST_PARAMETERS: human CD73 4 ng/ml, 50 μM CMP, 20 min at RT, malachite green readout; read-out: Assay 1: IC50, inhibition of 5′-nucleotidase activity of CD73
pIC50: −log10 of the molar value.

# COMPOUND, pIC50
rows = [
    ("Nc1nc(I)nc2c1ncn2[C@@H]1O[C@H](CO[C@@H](C(=O)O)P(=O)(O)O)[C@@H](O)[C@H]1O [Example 59a]", "> 7.00"),
    ("CNc1nc(Cl)nc2c1ncn2[C@@H]1O[C@H](COC(C(F)(F)F)P(=O)(O)O)[C@@H](O)[C@H]1O (single isomer, unassigned) [Example 100a]", "> 7.00"),
    ("Nc1nc(Cl)nc2c1ncn2[C@@H]1O[C@H](CO[C@@H](C(=O)OCc2ccccc2)P(=O)(O)O)[C@@H](O)[C@H]1O (single isomer, unassigned)", "> 7.00"),
]

====

MEASURED_TARGET: human CD73 (Homo sapiens, UniProt P21589)
Construct: purchased R&D Systems 5795-EN-010
ASSAY_NAME: Inhibition of 5′-Nucleotidase Activity of CD73 (Assay 1)
Format: biochemical
TEST_PARAMETERS: human CD73 4 ng/ml, 50 μM CMP, 20 min at RT, malachite green readout; read-out: Assay 1: IC50, inhibition of 5′-nucleotidase activity of CD73
OBSERVED_PROPERTY: IC50

# COMPOUND, MEASURED_TARGET, OBSERVED_RESULT
records = [
    ("CCOC(=O)[C@H](OC[C@H]1O[C@@H](n2cnc3c(N)nc(C#N)nc32)[C@H](O)[C@@H]1O)P(=O)(O)O (single isomer, unassigned) [Example 45]", "human CD73 (Homo sapiens, UniProt P21589)", "< 100 nM"),
    ("CCOC(=O)[C@H](OC[C@H]1C[C@@H](n2cnc3cccc(C#N)c3c2=O)[C@H](O)[C@@H]1O)P(=O)(O)O [Example 73]", "human CD73 (Homo sapiens, UniProt P21589)", "< 100 nM"),
    ("CCOC(=O)[C@H](OC[C@H]1O[C@@H](n2cnc3c(-n4ccnc4)nc(Cl)nc32)[C@H](O)[C@@H]1O)P(=O)(O)O (single isomer, unassigned) [Example 26]", "human CD73 (Homo sapiens, UniProt P21589)", "< 100 nM"),
    ("CCOC(=O)[C@H](OC[C@H]1O[C@@H](n2cnc3c(N)nc(Cc4ccccc4)nc32)[C@H](O)[C@@H]1O)P(=O)(O)O (single isomer, unassigned) [Example 39]", "human CD73 (Homo sapiens, UniProt P21589)", "< 100 nM"),
    ("Nc1nc(Cl)nc2c1ncn2[C@@H]1O[C@H](CO[C@H](C(=O)OCc2ccccc2)P(=O)(O)O)[C@@H](O)[C@H]1O [Example 16a]", "human CD73 (Homo sapiens, UniProt P21589)", "100 to 1000 nM"),
    ("CCOC(=O)[C@@H](OC[C@H]1O[C@@H](n2ccc(=O)n(C)c2=O)[C@H](O)[C@@H]1O)P(=O)(O)O (single isomer, unassigned) [Example 30a]", "human CD73 (Homo sapiens, UniProt P21589)", "> 1000 nM"),
    ("CCOC(=O)[C@@H](OC[C@H]1O[C@@H](n2cnc3c(NC4CCCC4)nc(Cl)nc32)[C@H](O)[C@@H]1O)P(=O)(O)O (single isomer, unassigned) [Example 25a]", "human CD73 (Homo sapiens, UniProt P21589)", "< 100 nM"),
    ("CCOC(=O)[C@H](OC[C@H]1O[C@@H](n2cnc3c(N)nc(Cl)nc32)[C@H](O)[C@@H]1O)P(=O)(O)O (single isomer, unassigned) [1, isomer 1]", "human CD73 (Homo sapiens, UniProt P21589)", "< 100 nM"),
    ("CC(C)CNC(=O)[C@H](OC[C@H]1O[C@@H](n2cnc3c(N)nc(Cl)nc32)[C@H](O)[C@@H]1O)P(=O)(O)O (single isomer, unassigned) [Example 17]", "human CD73 (Homo sapiens, UniProt P21589)", "< 100 nM"),
    ("Nc1ncnc2c1ncn2[C@@H]1O[C@H](CO[C@H](CO)P(=O)(O)O)[C@@H](O)[C@H]1O (single isomer, unassigned) [Example 57a]", "human CD73 (Homo sapiens, UniProt P21589)", "> 1000 nM"),
    ("CCOC(=O)[C@H](OC[C@H]1O[C@@H](n2cnc3c(NC)nc(Cl)nc32)[C@H](O)[C@@H]1O)P(=O)(O)O (single isomer, unassigned) [Example 23]", "human CD73 (Homo sapiens, UniProt P21589)", "< 100 nM"),
]

====

MEASURED_TARGET: human CD73 (Homo sapiens, UniProt P21589)
Construct: purchased R&D Systems 5795-EN-010
ASSAY_NAME: Inhibition of 5′-Nucleotidase Activity of CD73 (Assay 1)
Type: biochemical
TEST_PARAMETERS: human CD73 4 ng/ml, 50 μM CMP, 20 min at RT, malachite green readout; read-out: Assay 1: IC50, inhibition of 5′-nucleotidase activity of CD73
Examples of molecules with documented IC50 follow.

# MOLECULE, IC50
measured = [
    ("CCS(=O)(=O)C(OC[C@H]1O[C@@H](n2cnc3c(N)nc(Cl)nc32)[C@H](O)[C@@H]1O)P(=O)(O)O (single isomer, unassigned) [Example 11]", "< 0.1 µM"),
    ("CC(C)Nc1ncnc2c1ncn2[C@@H]1O[C@H](COC(C(=O)O)P(=O)(O)O)[C@@H](O)[C@H]1O (stereo partly drawn)", "> 1 µM"),
    ("Nc1nc(Cl)nc2c1ncn2[C@@H]1O[C@H](COC(Cc2cc(F)cc(F)c2)(C(=O)O)C(=O)O)[C@@H](O)[C@H]1O", "< 0.1 µM"),
    ("Cc1nnc(C(OC[C@H]2O[C@@H](n3cnc4c(N)nc(Cl)nc43)[C@H](O)[C@@H]2O)P(=O)(O)O)o1 (single isomer, unassigned) [Example 21a]", "0.1 to 1 µM"),
    ("CCOC(=O)C(OC[C@H]1O[C@@H](n2cnc3c(N)nc(SC)nc32)[C@H](O)[C@@H]1O)P(=O)(O)O (stereo partly drawn)", "0.1 to 1 µM"),
    ("CCOC(=O)[C@@H](OC[C@H]1O[C@@H](n2cnc3c(N)nc(-c4ccccc4)nc32)[C@H](O)[C@@H]1O)P(=O)(O)O (single isomer, unassigned) [Example 40a]", "< 0.1 µM"),
]

====

Examples of molecules with documented pIC50 follow.
MEASURED_TARGET: human CD73 (Homo sapiens, UniProt P21589)
Construct: purchased R&D Systems 5795-EN-010
Sequence (P21589 27-549): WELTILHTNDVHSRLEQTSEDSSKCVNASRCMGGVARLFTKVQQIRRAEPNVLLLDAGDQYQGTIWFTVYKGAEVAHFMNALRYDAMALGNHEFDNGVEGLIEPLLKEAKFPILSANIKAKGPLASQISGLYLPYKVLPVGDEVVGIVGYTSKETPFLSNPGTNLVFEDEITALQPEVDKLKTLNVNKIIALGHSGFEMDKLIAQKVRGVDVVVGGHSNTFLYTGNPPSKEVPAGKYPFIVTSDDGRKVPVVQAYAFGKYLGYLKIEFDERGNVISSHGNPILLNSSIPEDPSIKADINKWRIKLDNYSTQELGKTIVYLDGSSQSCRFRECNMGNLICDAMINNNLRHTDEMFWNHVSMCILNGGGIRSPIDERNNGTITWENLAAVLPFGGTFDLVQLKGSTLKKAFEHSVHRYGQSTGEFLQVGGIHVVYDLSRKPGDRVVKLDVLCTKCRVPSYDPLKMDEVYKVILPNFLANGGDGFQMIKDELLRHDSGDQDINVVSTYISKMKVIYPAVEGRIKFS
ASSAY_NAME: Inhibition of 5′-Nucleotidase Activity of CD73 (Assay 1)
Format: biochemical
TEST_PARAMETERS: human CD73 4 ng/ml, 50 μM CMP, 20 min at RT, malachite green readout; read-out: Assay 1: IC50, inhibition of 5′-nucleotidase activity of CD73
pIC50: −log10 of the molar value.

# MOLECULE, MEASURED_TARGET, pIC50
data = [
    ("CCOC(=O)[C@@H](OC[C@@H]1O[C@H](n2cnc3c(N)nc(C)nc32)[C@@H](O)[C@H]1O)P(=O)(O)O (single isomer, unassigned) [Example 37a]", "human CD73 (Homo sapiens, UniProt P21589)", "< 6.00"),
    ("Nc1nc(Cl)nc2c1ncn2[C@@H]1O[C@H](COC(Cc2c(F)cccc2F)(C(=O)O)C(=O)O)[C@@H](O)[C@H]1O", "human CD73 (Homo sapiens, UniProt P21589)", "> 7.00"),
    ("Cc1nc(C)c2ncn([C@@H]3O[C@H](COC(C(=O)O)P(=O)(O)O)[C@@H](O)[C@H]3O)c2n1 (stereo partly drawn)", "human CD73 (Homo sapiens, UniProt P21589)", "6.00 to 7.00"),
    ("Nc1nc(Cl)nc2c1ncn2[C@@H]1O[C@H](COC(C(=O)O)P(=O)(O)O)[C@@H](O)[C@H]1O (single isomer, unassigned) [Example 61a]", "human CD73 (Homo sapiens, UniProt P21589)", "> 7.00"),
    ("Nc1nc(Cl)nc2c1ncn2[C@@H]1O[C@H](COC(Cc2ccccn2)(C(=O)O)C(=O)O)[C@@H](O)[C@H]1O", "human CD73 (Homo sapiens, UniProt P21589)", "> 7.00"),
    ("O=C(O)C(OC[C@H]1O[C@@H](n2cnc3c(N4CCC(O)CC4)ncnc32)[C@H](O)[C@@H]1O)P(=O)(O)O (stereo partly drawn)", "human CD73 (Homo sapiens, UniProt P21589)", "6.00 to 7.00"),
    ("CCOC(=O)C(OC[C@H]1C[C@@H](n2nnc3c(N[C@@H]4CCOC4)nc(Cl)nc32)[C@H](O)[C@@H]1O)P(=O)(O)O (stereo partly drawn)", "human CD73 (Homo sapiens, UniProt P21589)", "> 7.00"),
    ("CC(C)CNC(=O)[C@@H](OC[C@H]1O[C@@H](n2cnc3c(N)nc(Cl)nc32)[C@H](O)[C@@H]1O)P(=O)(O)O (single isomer, unassigned) [Example 17a]", "human CD73 (Homo sapiens, UniProt P21589)", "6.00 to 7.00"),
    ("CCOC(=O)[C@@](CC(=O)O)(OC[C@H]1O[C@@H](n2cnc3c(N)nc(F)nc32)[C@H](O)[C@@H]1O)P(=O)(O)O (single isomer, unassigned) [Example 79a]", "human CD73 (Homo sapiens, UniProt P21589)", "6.00 to 7.00"),
    ("CCOC(=O)C(OC[C@H]1C[C@@H](n2nnc3c(N)nc(Br)nc32)[C@H](O)[C@@H]1O)P(=O)(O)O (single isomer, unassigned) [Example 77a]", "human CD73 (Homo sapiens, UniProt P21589)", "> 7.00"),
    ("Nc1ncnc2c1ncn2[C@@H]1O[C@H](COC(C(=O)O)C(=O)O)[C@@H](O)[C@H]1O", "human CD73 (Homo sapiens, UniProt P21589)", "< 6.00"),
    ("O=C(O)C(OC[C@H]1O[C@@H](n2cnc3c(N[C@H]4CCOC4)nc(Cl)nc32)[C@H](O)[C@@H]1O)C(=O)O", "human CD73 (Homo sapiens, UniProt P21589)", "6.00 to 7.00"),
]
